- ASSAY_TARGET: Heat shock protein HSP90 (Homo sapiens, UniProt P07900+P08238)
- ASSAY_PROTOCOL: Displacement of biotinylated geldanamycin from human His-tagged Hsp90 by TR-FRET assay
- Type: protein assay
Note to self: IC50 under 0.05 µM means satisfied, ties and anything higher get not satisfied.

1) C[C@H](NC(=O)c1ccc(N2C3CCC2CC(NC(=O)c2ccc(C(N)=O)c(NC4CCC4)c2)C3)nc1)c1ccc(N2CCN(C)CC2)cc1 (some centres not stated) :: not satisfied
2) Cc1cc(C(N)=O)c(NCC2CC2)cc1C(=O)NC1CC2CCC(C1)N2c1ccc(C(=O)C2CC2)cn1 (configuration not stated) :: satisfied
3) C[C@H](NC(=O)c1ccc(N2C3CCC2CC(NC(=O)c2ccc(C(N)=O)c(NCC4CC4)c2)C3)nc1)c1ccc(N2CCN(C)CC2)cc1 (some centres not stated) :: not satisfied
4) NC(=O)c1ccc(C(=O)NC2CC3CCC(C2)N3c2ccc(C(=O)C3CC3)cn2)cc1NCC1CC1 (configuration not stated) :: not satisfied
5) Cc1cc(C(=O)NC2CC3CCC(C2)N3c2ccc(C(=O)N[C@@H](C)c3ccc(N4CCN(C)CC4)cc3)cn2)c(C)cc1C(N)=O (some centres not stated) :: not satisfied
6) CCC(CC)Nc1cc(C(=O)NC2CC3CCC(C2)N3c2ccc(C(=O)C3CC3)cn2)c(C)cc1C(N)=O (configuration not stated) :: satisfied
7) NC(=O)c1ccc(C(=O)NC2CC3CCC(C2)N3c2ccc(C(=O)NC3CCCC3)cn2)cc1NCC1CC1 (configuration not stated) :: not satisfied
